Value source: ChEMBL document CHEMBL1135325

# ASSAY COMMENT: Aqueous solubility
# Assay type: physicochemical
# TEST CONTEXT: water; read-out: S
# solubility binned as low (below 2000 µg/mL), middle (2000 µg/mL to below 20000 µg/mL), high (20000 µg/mL or more)

Incoming: Which band does "C=CC[n+]1ccc(CCC(=O)c2cc3cc(OC)c(OC)cc3s2)cc1.[Br-]" fall in?
Outgoing: high

Incoming: Please report the category associated with COC(=O)C[N+]1(C)CCC(CCC(=O)c2cc3cc(OC)c(OC)cc3s2)CC1.[Br-] (centres undefined) , nothing else.
Outgoing: high

Incoming: Using the reported solubility, which band applies to "COCC[n+]1ccc(CCC(=O)c2cc3cc(OC)c(OC)cc3s2)cc1" ?
Outgoing: high

Incoming: Lab log: COc1cc2cc(C(=O)CC(O)C3CC[N+](C)(Cc4ccccc4)CC3)sc2cc1OC.[Br-] (single isomer, unassigned; (+)) — assign solubility category
Outgoing: middle

Incoming: # classify by solubility band: "COc1cc2cc(C(=O)CCc3cc[n+](Cc4ccc(F)cc4)cc3)sc2cc1OC"
Outgoing: low

Incoming: Class (by measured solubility) for "CCOCC[n+]1ccc(CCC(=O)c2cc3cc(OC)c(OC)cc3s2)cc1"
Outgoing: high

Incoming: Sort into band: "COc1cc2cc(C(=O)CCc3cc[n+](Cc4ccc([N+](=O)[O-])o4)cc3)sc2cc1OC.[Br-]"
Outgoing: high

Incoming: Which solubility band matches COc1cc2cc(C(=O)CCC3CC[N+](C)(CCOc4ccccc4)CC3)sc2cc1OC.[Br-] (centres undefined) ?
Outgoing: low

Incoming: Determine which band this molecule sits in: "CCC[n+]1ccc(CCC(=O)c2cc3cc(OC)c(OC)cc3s2)cc1.[Br-]"
Outgoing: middle

Incoming: Lab note: which band did COc1cc2cc(C(=O)CCC3CC[N+](C)(Cc4ccc([N+](=O)[O-])o4)CC3)sc2cc1OC.[Br-] (centres undefined) land in?
Outgoing: low

Incoming: Class for "CC[n+]1ccc(CCC(=O)c2cc3cc(OC)c(OC)cc3s2)cc1.[Br-]" ?
Outgoing: high

Incoming: Hello team, could you let me know which band the following molecule falls into: COc1cc2cc(C(=O)CC(OC)C3CC[N+](C)(Cc4ccccc4)CC3)sc2cc1OC.[Br-] (centres undefined)
Outgoing: low

Incoming: Kindly state the category for this molecule: COc1cc2cc(C(=O)CC(O)CCC3CC[N+](C)(Cc4ccccc4)CC3)sc2cc1OC.[Br-] (centres undefined)
Outgoing: middle

Incoming: Entry COc1cc2cc(C(=O)CCC3CC[N+](C)(CC4CCCCO4)CC3)sc2cc1OC.[Br-] (centres undefined) belongs to which category?
Outgoing: low

Incoming: For COc1cc2cc(C=C3CC[N+](C)(Cc4ccccc4)CC3)sc2cc1OC.[Br-] (centres undefined) , which solubility bin applies?
Outgoing: low
